Test system: Salsola kali (Russian thistle), SASKR
Assay: Greenhouse postemergence trial, visual injury on Russian thistle
Type: in vivo
Conditions: safener alone 20 g/ha
observationType: % visual injury, Ob (%)
Answers are plain numbers, in %.

Sample records with % visual injury, Ob:
| compound | observationType | unitInfo | measurement |
| --- | --- | --- | --- |
| CCN(CC)CC.O=C(O)COc1ccc(Cl)c2cccnc12 [CQC-TEA, cloquintocet-triethylamine salt] | % visual injury, Ob | % | 0 |
| CCCCCC(C)OC(=O)COc1ccc(Cl)c2cccnc12 (centres unmarked) [CQC-mexyl, cloquintocet-mexyl] | % visual injury, Ob | % | 0 |
| CNC.O=C(O)COc1ccc(Cl)c2cccnc12 [CQC-DMA, cloquintocet-dimethylammonium salt] | % visual injury, Ob | % | 0 |
| COC(=O)COc1ccc(Cl)c2cccnc12 [CQC-methyl, cloquintocet-methyl] | % visual injury, Ob | % | 0 |

Prompt: // returns reported % visual injury, Ob for input CC(O)CN(CC(C)O)CC(C)O.O=C(O)COc1ccc(Cl)c2cccnc12 [CQC-TIPA, cloquintocet-triisopropanolamine salt]
Response: 0
